tested_on: Hck (UniProt P08631)
Sequence (P08631 whole entry, looked up): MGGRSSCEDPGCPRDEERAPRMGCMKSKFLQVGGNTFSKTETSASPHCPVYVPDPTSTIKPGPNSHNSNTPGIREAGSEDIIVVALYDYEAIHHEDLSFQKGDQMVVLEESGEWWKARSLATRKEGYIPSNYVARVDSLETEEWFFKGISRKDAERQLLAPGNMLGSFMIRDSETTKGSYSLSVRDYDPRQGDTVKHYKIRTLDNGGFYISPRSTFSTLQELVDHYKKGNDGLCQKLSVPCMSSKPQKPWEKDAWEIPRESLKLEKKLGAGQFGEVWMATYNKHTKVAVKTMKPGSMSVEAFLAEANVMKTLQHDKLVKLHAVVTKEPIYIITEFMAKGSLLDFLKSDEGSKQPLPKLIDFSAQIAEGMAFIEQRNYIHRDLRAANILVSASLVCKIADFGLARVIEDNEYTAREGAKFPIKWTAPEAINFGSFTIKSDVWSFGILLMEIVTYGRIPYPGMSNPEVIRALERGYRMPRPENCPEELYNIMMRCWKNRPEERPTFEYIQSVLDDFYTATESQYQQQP
experiment_notes: phosphorylation enrichment, bacterial display (enrichment ratio); higher = better substrate or ligand; peptides without Tyr show the background;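 further: 11-residue human phosphosite peptides and single-mutation variants displayed on the E. coli surface, counted by deep sequencing, each peptide's frequency after selection divided by its frequency in the unselected input library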;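 further: frequency after pTyr selection over input frequency; kinase dosed for 20-30% of maximal phosphorylation in three min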
Would you mind labelling by phosphorylation enrichment? At or over 0.6 is condition met, under is condition not met.

Challenge: Could you please find out whether LNEQHYGGLTG [PGAM4_Y92_R90Q] has phosphorylation enrichment that meets 0.6 or exceeds it?
Response given: condition met

Challenge: Could you please find out whether CKQGKYLNWDA [ATM_Y54_S49C] has phosphorylation enrichment that meets 0.6 or exceeds it?
Response given: condition not met

Challenge: Could you please find out whether GGSSPYSRRLA [CDK13_Y351_P356A] has phosphorylation enrichment that meets 0.6 or exceeds it?
Response given: condition not met

Challenge: Could you please find out whether APIEDYGGGGG [B4GALT6_Y382] has phosphorylation enrichment that meets 0.6 or exceeds it?
Response given: condition not met

Challenge: Could you please find out whether NNHGNYIVLLG [ETFDH_Y172_R175L] has phosphorylation enrichment that meets 0.6 or exceeds it?
Response given: condition not met

Challenge: Could you please find out whether FEELVYETVRV [FSHB_Y76_K72E] has phosphorylation enrichment that meets 0.6 or exceeds it?
Response given: condition met

Challenge: Could you please find out whether QRPGLYDRPGA [HNRNPH2_Y210_P209L] has phosphorylation enrichment that meets 0.6 or exceeds it?
Response given: condition met

Challenge: Could you please find out whether RVQKRYIFDNV [RCN1_Y115] has phosphorylation enrichment that meets 0.6 or exceeds it?
Response given: condition not met

Challenge: Could you please find out whether HKDNNYVSMWF [PAPOLG_Y432] has phosphorylation enrichment that meets 0.6 or exceeds it?
Response given: condition met

Challenge: Could you please find out whether EQFELHCEMGS [CBL_Y371_Y371H_YF] has phosphorylation enrichment that meets 0.6 or exceeds it?
Response given: condition not met

Challenge: Could you please find out whether SVTFTYSPALN [TP53_Y126_C124Y_YF] has phosphorylation enrichment that meets 0.6 or exceeds it?
Response given: condition not met

Challenge: Could you please find out whether FAKTQYPDIFA [CRX_Y63_V66I_YF] has phosphorylation enrichment that meets 0.6 or exceeds it?
Response given: condition not met

Challenge: Could you please find out whether QLCVSYPGGYT [PROS1_Y259_N258S] has phosphorylation enrichment that meets 0.6 or exceeds it?
Response given: condition not met

Challenge: Could you please find out whether FEKFLYFLPAS [DYNC2H1_Y346_H341Y_YF] has phosphorylation enrichment that meets 0.6 or exceeds it?
Response given: condition met

Challenge: Could you please find out whether GGGFGYQKTKK [DDX18_Y643] has phosphorylation enrichment that meets 0.6 or exceeds it?
Response given: condition not met

Challenge: Could you please find out whether NKYTTYLPWLP [C9orf24_Y126_R129W] has phosphorylation enrichment that meets 0.6 or exceeds it?
Response given: condition met

Challenge: Could you please find out whether SHLEDYPFNAE [AKR1B10_Y310] has phosphorylation enrichment that meets 0.6 or exceeds it?
Response given: condition not met

Challenge: Could you please find out whether LEPHIYAVADV [MYO9A_Y216] has phosphorylation enrichment that meets 0.6 or exceeds it?
Response given: condition met

Challenge: Could you please find out whether MNLLGYRHVRS [CHST4_Y359] has phosphorylation enrichment that meets 0.6 or exceeds it?
Response given: condition not met

Challenge: Could you please find out whether PPGRSYSPYDY [TNS1_Y793] has phosphorylation enrichment that meets 0.6 or exceeds it?
Response given: condition met

Challenge: Could you please find out whether KSIQLYDTPFE [SHB_Y297_G293S_YF] has phosphorylation enrichment that meets 0.6 or exceeds it?
Response given: condition met

Challenge: Could you please find out whether LWQSIYNLDAE [TNNT2_Y251_E254D] has phosphorylation enrichment that meets 0.6 or exceeds it?
Response given: condition met

Challenge: Could you please find out whether TYGVVYRAKDK [CDK11B_Y453] has phosphorylation enrichment that meets 0.6 or exceeds it?
Response given: condition met

Challenge: Could you please find out whether NQDRTYYERVR [SPEN_Y632_S635R] has phosphorylation enrichment that meets 0.6 or exceeds it?
Response given: condition met

Challenge: Could you please find out whether HKDNNYISMWF [PAPOLG_Y432_V433I] has phosphorylation enrichment that meets 0.6 or exceeds it?
Response given: condition met

Challenge: Could you please find out whether SSAAGYACLAY [MVD_Y131] has phosphorylation enrichment that meets 0.6 or exceeds it?
Response given: condition not met

Challenge: Could you please find out whether RGESFYQDRMN [RARS_Y338] has phosphorylation enrichment that meets 0.6 or exceeds it?
Response given: condition met

Challenge: Could you please find out whether HVPEEYKPKQG [SAXO2_Y37] has phosphorylation enrichment that meets 0.6 or exceeds it?
Response given: condition met

The reported measurements were obtained from the supplement of paper PMC10065799.
